Attribute: Kd
Target: DS-Cav1 (RSV F-protein, pre-form, in-house) (respiratory syncytial virus (RSV), UniProt P03420 26-513)
Sequence (P03420 26-524): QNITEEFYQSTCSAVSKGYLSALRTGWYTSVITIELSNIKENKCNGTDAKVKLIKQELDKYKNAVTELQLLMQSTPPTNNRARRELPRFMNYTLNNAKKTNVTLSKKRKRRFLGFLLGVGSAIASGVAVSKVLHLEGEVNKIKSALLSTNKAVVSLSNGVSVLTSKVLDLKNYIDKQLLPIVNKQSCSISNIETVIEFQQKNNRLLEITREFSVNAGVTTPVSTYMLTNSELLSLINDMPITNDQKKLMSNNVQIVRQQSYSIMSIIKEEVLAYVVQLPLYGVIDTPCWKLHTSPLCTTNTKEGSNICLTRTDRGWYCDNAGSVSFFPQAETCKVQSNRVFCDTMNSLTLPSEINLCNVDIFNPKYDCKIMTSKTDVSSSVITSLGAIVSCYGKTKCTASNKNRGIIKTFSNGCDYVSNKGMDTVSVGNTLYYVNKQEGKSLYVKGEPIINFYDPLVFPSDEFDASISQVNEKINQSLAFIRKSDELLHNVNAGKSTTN
Experiment: ELISA, coated DS-Cav1, IgG titrated

Solved entries:
4H5 (antibody, V domains shown, IgG made in Expi293) VH: EVQLVESGGGLVKPGGSLRLSCAGSGFTFSSYTMHWVRQAPGKGLEWVSSITGGSSYVDYSASVKGRFTISRDNAQSSLYLQMNSLRAEDTAVYYCARDDYGSGSYSNWFDPWGQGTLVTVSS VL: QSVLTQPPSVSGAPGQRVTISCTGSSSNIGAGYDVHWYQQLPGAAPRLLMFGNSNRPSGVPDRFSGSKSGTSASLAITGLQAEDEADYYCQSYDRSLSHVFGTGTKVTVLG | ~0.23 nM
10A6 (antibody, V domains shown, IgG made in Expi293; also called #27; 27) VH: EVQLVESGGGLVKPGGSLRLSCAASGFTFTSYRMHWVRQAPGKGLEWVSSITGGGNYIEYADSVKGRFTISRDNAKNSLDLQMNSLRAEDTAIYYCARDMYGLGSYYSPNYFDSWGQGTLVTVSS VL: SYELTQPPSVSGAPGQRVTISCTGSSSNIGAGYDVHWYQQLPGAAPRLLMFGNSNRPSGVPDRFSGSKSGTSASLAITGLQAEDEADYYCQSYDSSLSYVFGTGTKVTVLG | ~1.56 nM

Turning to the following binder.
Need Kd of 8A11 (antibody, V domains shown, IgG made in Expi293; also called #63; 63) VH: QVQLVQSGSEVKKPGASVKVSCKASGYTFGHYGISWVRQAPGQGLEWMAWISAYNGNTDSIQKVQGRVTMTTDTSTNTAYLELRSLRSDDTAVYYCVRDVPATGGAATADYWGQGTLVTVSS VL: DVVMTQSPLSLPVTLGQPASISCKSSRSLVHSDGNTYLSWFQQRPGQSPRRLIYKVSNRDSGVPDRFSASGSGTDFTLKISRVEADDVGVYYCMQVTHWPRTFGQGTKLEIKR , thanks.
~0.69 nM
